The measured values listed here are drawn from patent US8853246B2.

# Tested on: Sweetpotato Whitefly-Crawler (Bemisia Tabaci)
# test description: Insecticidal test for sweetpotato whitefly-crawler in foliar spray assay (col. BEMITA)
# Type: in vivo
# condition label: Bemisia tabaci, sweetpotato whitefly-crawler, read-out: BEMITA 200 ppm (Corrected % Control, rating)
experimental readout: pest or weed control at 200 ppm

- compound: "CC(C)C(=O)N(C)c1sc(-c2cncc(F)c2)nc1Cl [Compound 263]"
  pest or weed control at 200 ppm: "80 to 100%"

--- query ---
Fill blank: measured pest or weed control at 200 ppm of the compound CCN(C(=O)C(C)CSC)c1sc(-c2cccnc2)nc1C (stereo not shown) [Compound 210] is ____. 80 to 100%

* * *

# System: Sweetpotato Whitefly-Crawler (Bemisia Tabaci)
# test description: Insecticidal test for sweetpotato whitefly-crawler in foliar spray assay (col. BEMITA)
# Assay type: in vivo
# condition label: Bemisia tabaci, sweetpotato whitefly-crawler, read-out: BEMITA 200 ppm (Corrected % Control, rating)
# Procedure: The compounds were tested against cotton aphid, green peach aphid, and sweet potato whitefly using procedures described in the following examples and reported in Table 2. In each case of Table 2, the rating scale is as follows at 200 ppm. Insecticidal Test for Sweetpotato Whitefly-Crawler (Bemisia Tabaci) in Foliar Spray Assay Cotton plants grown in 3-inch pots, with 1 small (3-5 cm) true leaf, were used as test substrate. The plants were placed in a room with whitefly adults. […]
List of pest or weed control at 200 ppm values.

- molecule: "CCCC(C)(C)OC(=O)Nc1sc(-c2cccnc2)nc1C"
  pest or weed control at 200 ppm: "80 to 100%"
- molecule: "Cc1nc(-c2cccnc2)sc1N(C)C(=O)C(NC(=O)OC(C)(C)C)C(C)OCc1ccccc1 (centres unmarked)"
  pest or weed control at 200 ppm: "< 80%"
- molecule: "CSCC(C)C(=O)N(CC(C)C)c1sc(-c2cccnc2)nc1C (centres unmarked)"
  pest or weed control at 200 ppm: "80 to 100%"
- molecule: "CCN(C(=O)C(C)(C)CS(C)(=O)=O)c1sc(-c2cccnc2)nc1C"
  pest or weed control at 200 ppm: "< 80%"

--- query ---
Fill blank: measured pest or weed control at 200 ppm of the molecule Cc1nc(-c2cccnc2)sc1N(C)C(=O)[C@H](C)NC(=O)OC(C)(C)C is ____. 80 to 100%

* * *

List of melting point values.

- compound: "CCN(C(=O)c1sc(C)nc1C(F)(F)F)c1sc(-c2cccnc2)nc1Cl [Compound 548]"
  melting point: "102 to 103 °C"

Fill blank: measured melting point of the compound COCC(C)OC(=O)Nc1sc(-c2cccnc2)nc1C (centres unmarked) [Compound 325] is ____. 106 to 111 °C

Fill blank: measured melting point of the compound CCS(=O)(=O)N1CCCC(C(=O)Nc2sc(-c3cccnc3)nc2C)C1 (centres unmarked) [Compound 388] is ____. 190 to 194 °C

Fill blank: measured melting point of the compound Cc1nc(-c2cncc(C#N)c2)sc1NC(=O)OC(C)(C)C [Compound 151] is ____. 171 to 174 °C

Fill blank: measured melting point of the compound CSCC(C)C(=O)N(C)c1sc(-c2cncc(Br)c2)nc1C (centres unmarked) [Compound 296] is ____. 79 to 81 °C

Fill blank: measured melting point of the compound CCN(C(=O)CCSC)c1cnc(-c2cncc(F)c2)s1 [Compound 308] is ____. 78 to 81 °C

* * *

# Test system: Sweetpotato Whitefly-Crawler (Bemisia Tabaci)
# test description: Insecticidal test for sweetpotato whitefly-crawler in foliar spray assay (col. BEMITA)
# Type: in vivo
# condition label: Bemisia tabaci, sweetpotato whitefly-crawler, read-out: BEMITA 200 ppm (Corrected % Control, rating)
experimental readout: pest or weed control at 200 ppm

In the examples that follow, each entry is paired with its recorded pest or weed control at 200 ppm.
- molecule: "CC(=O)OC(C)C(=O)Nc1sc(-c2cccnc2)nc1C (stereo not drawn) [Compound 334]"
  pest or weed control at 200 ppm: "< 80%"
- molecule: "Cc1nc(-c2cccnc2)sc1N(C)C(=O)c1cccc(SC(F)F)c1 [Compound 397]"
  pest or weed control at 200 ppm: "80 to 100%"
- molecule: "Cc1nc(-c2cncc(F)c2)sc1N(C)C(=O)C(C)CSCc1ccc(Cl)cc1 (stereo not drawn) [Compound 190]"
  pest or weed control at 200 ppm: "80 to 100%"

Fill blank: measured pest or weed control at 200 ppm of the molecule CC(C)(C)OC(=O)N(COCc1ccccc1)c1cnc(-c2cccnc2)s1 [Compound 265] is ____. < 80%

Fill blank: measured pest or weed control at 200 ppm of the molecule CSCC(C)C(=O)N(C(=O)OC(C)(C)C)c1sc(-c2cncc(S(C)(=O)=O)c2)nc1C (stereo not drawn) [Compound 157] is ____. < 80%

Fill blank: measured pest or weed control at 200 ppm of the molecule CSCCC(=O)N(C)c1cnc(-c2cccnc2)s1 [Compound 19] is ____. < 80%

Fill blank: measured pest or weed control at 200 ppm of the molecule CCSCC(=O)Nc1sc(-c2cccnc2)nc1C [Compound 373] is ____. 80 to 100%

Fill blank: measured pest or weed control at 200 ppm of the molecule CSCC(C)C(=O)N(C(=O)OC(C)(C)C)c1sc(-c2cncc(C)c2)nc1C (stereo not drawn) [Compound 156] is ____. < 80%

Fill blank: measured pest or weed control at 200 ppm of the molecule CC(C[S+](C)[O-])C(=O)N(C)c1sc(-c2cccnc2)nc1Cl (stereo not drawn) [Compound 230] is ____. 80 to 100%

* * *

# Tested on: Sweetpotato Whitefly-Crawler (Bemisia Tabaci)
# test description: Insecticidal test for sweetpotato whitefly-crawler in foliar spray assay (col. BEMITA)
# Assay type: in vivo
# condition label: Bemisia tabaci, sweetpotato whitefly-crawler, read-out: BEMITA 200 ppm (Corrected % Control, rating)
experimental readout: pest or weed control at 200 ppm

In the examples that follow, each entry is paired with its recorded pest or weed control at 200 ppm.
- compound: "CSCC(C)C(=O)Nc1sc(-c2cccnc2)nc1C (stereo not shown)"
  measured target: "Sweetpotato Whitefly-Crawler (Bemisia Tabaci)"
  experimental readout: "pest or weed control at 200 ppm"
  reading: "80 to 100%"
- compound: "Cc1nc(-c2cccnc2)sc1NC(=O)C(C)(C)C[S+](C)[O-] (stereo not shown)"
  measured target: "Sweetpotato Whitefly-Crawler (Bemisia Tabaci)"
  experimental readout: "pest or weed control at 200 ppm"
  reading: "< 80%"
- compound: "CSCCCC(=O)Nc1sc(-c2cccnc2)nc1C"
  measured target: "Sweetpotato Whitefly-Crawler (Bemisia Tabaci)"
  experimental readout: "pest or weed control at 200 ppm"
  reading: "80 to 100%"

Fill blank: measured pest or weed control at 200 ppm of the compound CCN(C(=O)CC(C)SC)c1sc(-c2cncc(F)c2)nc1C (stereo not shown) is ____. < 80%

Fill blank: measured pest or weed control at 200 ppm of the compound Cc1nc(-c2cccnc2)sc1NC(=O)Cn1nc(C)c(S(=O)(=O)N(C)C)c1C is ____. < 80%

* * *

# Test system: Sweetpotato Whitefly-Crawler (Bemisia Tabaci)
# test description: Insecticidal test for sweetpotato whitefly-crawler in foliar spray assay (col. BEMITA)
# Assay type: in vivo
# condition label: Bemisia tabaci, sweetpotato whitefly-crawler, read-out: BEMITA 200 ppm (Corrected % Control, rating)
# Method: The compounds were tested against cotton aphid, green peach aphid, and sweet potato whitefly using procedures described in the following examples and reported in Table 2. In each case of Table 2, the rating scale is as follows at 200 ppm. Insecticidal Test for Sweetpotato Whitefly-Crawler (Bemisia Tabaci) in Foliar Spray Assay Cotton plants grown in 3-inch pots, with 1 small (3-5 cm) true leaf, were used as test substrate. The plants were placed in a room with whitefly adults. […]
experimental readout: pest or weed control at 200 ppm

Fill blank: measured pest or weed control at 200 ppm of the compound C=CCN(C(=O)OC(C)(C)C)c1sc(-c2cccnc2)nc1C is ____. 80 to 100%

Fill blank: measured pest or weed control at 200 ppm of the compound CCN(C(=O)CCSCc1ccccc1)c1sc(-c2cccnc2)nc1C is ____. < 80%

Fill blank: measured pest or weed control at 200 ppm of the compound Cc1nc(-c2cncc(F)c2)sc1NC(=O)C(C)C/S(C)=N\C#N (stereo not shown) is ____. < 80%

Fill blank: measured pest or weed control at 200 ppm of the compound CC(C)C(=O)N(C)c1sc(-c2cccnc2)nc1Cl is ____. 80 to 100%

Fill blank: measured pest or weed control at 200 ppm of the compound Cc1nc(-c2cccnc2)sc1N(C)C(=O)C(C)N(C)C(=O)OC(C)(C)C (stereo not shown) is ____. < 80%

Fill blank: measured pest or weed control at 200 ppm of the compound Cc1nc(-c2cccnc2)sc1NC(=O)C1=CC(=O)CC(C)(C)O1 is ____. < 80%
